Attribution: PubChem BioAssay (NCI)

- Tested on: ACHN renal
- experiment: NCI tumour cell line growth inhibition, 48 h; in the data active = GI50 below about 0.43 µM; inactive = the rest
Possible outcomes: active, inactive

- molecule: "O=c1oc2ccc(F)cc2c(=O)n1-c1ccc(Br)cc1F"
  test.target: "ACHN renal"
  assigned.category: "inactive"
- molecule: "O=C(CCN1CCCC1)Nc1ccc2c(Nc3ccccc3)c3ccccc3nc2c1"
  test.target: "ACHN renal"
  assigned.category: "active"
- molecule: "CCCn1cnc2c(SCc3ccccc3)nc(N)nc21"
  test.target: "ACHN renal"
  assigned.category: "inactive"
- molecule: "COc1ccc(-c2nc3c(c(=O)n2C(C)=O)C(c2ccc(Cl)cc2)c2sc4c(Cl)cccc4c2O3)cc1 (configuration not stated)"
  test.target: "ACHN renal"
  assigned.category: "inactive"
- molecule: "COc1ccc2[nH]c(-c3ccccc3)cc2c1"
  test.target: "ACHN renal"
  assigned.category: "inactive"
- molecule: "c1ccc(CC(NCCNC(Cc2ccccc2)c2ccccc2)c2ccccc2)cc1 (configuration not stated)"
  test.target: "ACHN renal"
  assigned.category: "inactive"
- molecule: "O=C(Nc1ccc(Cl)cc1)Nc1ccccc1CNc1nc(Nc2ccc(OCCN3CCCC3)cc2)ncc1Cl"
  test.target: "ACHN renal"
  assigned.category: "inactive"
- molecule: "CN(C)C(=O)SC1=C(c2c(Cl)cccc2Cl)C(=O)c2ccccc21"
  test.target: "ACHN renal"
  assigned.category: "inactive"
- molecule: "COc1ccc(/C=C(/C(=O)n2cnnn2)c2cc(OC)c(OC)c(OC)c2)cc1"
  test.target: "ACHN renal"
  assigned.category: "inactive"
- molecule: "O=c1[nH]c2cc(Cl)c(Cl)cc2n2cc3ccccc3c12"
  test.target: "ACHN renal"
  assigned.category: "inactive"
- molecule: "CC12OC(C(=O)C13CCC3)C1C(=O)c3ccccc3C(=O)C12 (configuration not stated)"
  test.target: "ACHN renal"
  assigned.category: "inactive"
- molecule: "O=C(O)C1C(C(=O)O)C2(Cl)C(Cl)=C(Cl)C1(Cl)C2(Cl)Cl.[Cd] (configuration not stated)"
  test.target: "ACHN renal"
  assigned.category: "inactive"

* * *

- Tested on: SN12C renal
- experiment: NCI tumour cell line growth inhibition, 48 h
observation.type: TGI

- molecule: "CCCCCCOP(=O)(OCCCCCC)OC(C(=O)OC)C(F)(F)F (configuration not stated)"
  test.target: "SN12C renal"
  endpoint.result: "> 100 µM"
- molecule: "Cc1cc2n([O-])cccc-2[n+](=O)c1"
  test.target: "SN12C renal"
  endpoint.result: "> 100 µM"
- molecule: "O=C1OI(C#Cc2ccccc2)c2ccccc21"
  test.target: "SN12C renal"
  endpoint.result: "22.6 µM"
- molecule: "Cc1cc(NC(=O)NC(=O)c2ccccc2N(C)C)ccc1Oc1ncc(Br)cn1"
  test.target: "SN12C renal"
  endpoint.result: "> 100 µM"
- molecule: "COc1cc(O)c(C(C)=O)c(O)c1"
  test.target: "SN12C renal"
  endpoint.result: "> 100 µM"
- molecule: "NS(=O)(=O)c1cc(S(N)(=O)=O)c(NC(=O)N(c2ccccc2)c2ccccc2)c(Cl)c1Cl"
  test.target: "SN12C renal"
  endpoint.result: "57.6 µM"
- molecule: "COc1ccc(CC2=NCCc3cc(OC)c(OC)cc32)cc1Br"
  test.target: "SN12C renal"
  endpoint.result: "> 100 µM"
- molecule: "CN(C)C(=O)SC1=C(c2c(Cl)cccc2Cl)C(=O)c2ccccc21"
  test.target: "SN12C renal"
  endpoint.result: "17.7 µM"
- molecule: "CCCCCCCCCCCCCCCCOCC(Cl)COP(=O)(O)OP(=O)(O)OCC1OC(n2cnc3c(N)ncnc32)C(O)C1O (configuration not stated)"
  test.target: "SN12C renal"
  endpoint.result: "> 100 µM"
- molecule: "O=C1C(c2ccccc2)=C(c2ccccc2)[C@H](c2ccccc2)[C@]1(Cc1nnn(-c2ccc([N+](=O)[O-])cc2)c1N1CCOCC1)c1ccccc1"
  test.target: "SN12C renal"
  endpoint.result: "> 37.5 µM"
- molecule: "CCCn1cnc2c(SCc3ccccc3)nc(N)nc21"
  test.target: "SN12C renal"
  endpoint.result: "> 100 µM"
- molecule: "O=C(/C=C/c1ccco1)c1cccc(C(=O)/C=C/c2ccco2)n1"
  test.target: "SN12C renal"
  endpoint.result: "32 µM"
- molecule: "COc1ccc(NC(=O)c2sc3nc4c(cc3c2N)CCCC4)cc1"
  test.target: "SN12C renal"
  endpoint.result: "> 100 µM"
- molecule: "CC1(C)CCC2(C(=O)OC3OC(CO)C(O)C(O)C3O)CCC3(CO)C(=CCC4C5(C)CC(O)C(O)C(C)(C(=O)OC6OC(CO)C(O)C(O)C6O)C5CCC43C)C2C1 (configuration not stated)"
  test.target: "SN12C renal"
  endpoint.result: "> 100 µM"
- molecule: "Cn1cc(CO)c2ccccc21"
  test.target: "SN12C renal"
  endpoint.result: "> 100 µM"
- molecule: "CC(C)(C)[Si](C)(C)OCC1OC(n2cnc3c(N)ncnc32)C(O)C1O (configuration not stated)"
  test.target: "SN12C renal"
  endpoint.result: "> 100 µM"
- molecule: "CCOC(=O)C[C@@]12CCCNC1(C)CCc1ccccc12 (some centres not stated)"
  test.target: "SN12C renal"
  endpoint.result: "> 100 µM"
- molecule: "C=C1CC(Cn2cc(Br)c(=O)[nH]c2=O)(c2ccc(-c3ccccc3)cc2)OC1=O (configuration not stated)"
  test.target: "SN12C renal"
  endpoint.result: "4.67 µM"
- molecule: "COc1ccc(-c2cc(/C=C/C(=O)c3cc(OC)c(OC)c(OC)c3)[nH]n2)cc1OC"
  test.target: "SN12C renal"
  endpoint.result: "3.83 µM"
- molecule: "O=P(O)(O)CN1CCNCCN(CP(=O)(O)O)CCNCC1"
  test.target: "SN12C renal"
  endpoint.result: "> 100 µM"
- molecule: "CC(C)(CO)N=Cc1ccccc1[O-].CC(C)(CO)N=Cc1ccccc1[O-].[Co+2]"
  test.target: "SN12C renal"
  endpoint.result: "> 100 µM"
- molecule: "NC(=O)c1cc(I)ccc1NC(=O)COc1ccccc1"
  test.target: "SN12C renal"
  endpoint.result: "> 100 µM"
- molecule: "C1=C2CNCC3=Cc4ccc5ccccc5c4OC23Oc2c1ccc1ccccc21"
  test.target: "SN12C renal"
  endpoint.result: "20.1 µM"
- molecule: "CC(C)(C)OC(=O)N1CCc2c(n(C/C=C/c3ccccc3)[nH]c2=O)C1"
  test.target: "SN12C renal"
  endpoint.result: "> 100 µM"
- molecule: "OC(c1cc(-c2ccccc2)nc2c1ccc1ccccc12)C1CCCCN1 (configuration not stated)"
  test.target: "SN12C renal"
  endpoint.result: "3.1 µM"
- molecule: "CCN(CC)CCN(C)CCc1ccc(Br)cc1"
  test.target: "SN12C renal"
  endpoint.result: "> 100 µM"
- molecule: "COc1ccc(C2ONC3=NCCN32)cc1 (configuration not stated)"
  test.target: "SN12C renal"
  endpoint.result: "> 100 µM"
- molecule: "C/C(=N\\n1c(N)c(C#N)c(-c2ccc(Cl)cc2)c(C#N)c1=O)c1ccncc1"
  test.target: "SN12C renal"
  endpoint.result: "41.1 µM"
- molecule: "CCOC(=O)CCCn1cc(C(=O)OC)nn1"
  test.target: "SN12C renal"
  endpoint.result: "> 100 µM"
- molecule: "CCC(=O)c1cc([N+](=O)[O-])c(Br)s1"
  test.target: "SN12C renal"
  endpoint.result: "24.1 µM"
- molecule: "Cc1cc(S(=O)(=O)O)c(NC(=O)c2oc3cc(O)ccc3c(=O)c2C)cc1Cl"
  test.target: "SN12C renal"
  endpoint.result: "> 100 µM"
- molecule: "Cc1ccc(-n2c3c(c4c(CN5CCOCC5)c(O)ccc42)CCc2ccccc2C3=O)cc1"
  test.target: "SN12C renal"
  endpoint.result: "> 100 µM"
- molecule: "C=C[C@@](C)(/C=C/c1ccc(O)cc1)CCC=C(C)C"
  test.target: "SN12C renal"
  endpoint.result: "35.3 µM"
- molecule: "c1cnc2[nH]cc(-c3csc(-c4cn(CCCN5CCCCC5)c5ccccc45)n3)c2c1"
  test.target: "SN12C renal"
  endpoint.result: "3.22 µM"
- molecule: "O=c1c2c(nc3n1CCC3)sc1c(O)c(Br)ccc12"
  test.target: "SN12C renal"
  endpoint.result: "43.1 µM"
- molecule: "CCCCCCCCCC(=O)Oc1cccc2onc(C)c12"
  test.target: "SN12C renal"
  endpoint.result: "> 100 µM"
- molecule: "COC(=O)c1ccc(/C=C2\\CCc3ccccc3C2=O)cc1"
  test.target: "SN12C renal"
  endpoint.result: "> 100 µM"
- molecule: "C/C(=N\\Nc1ccccc1)C(CN(C)C)C(c1ccccc1)c1c(O)c2ccccc2oc1=O (configuration not stated)"
  test.target: "SN12C renal"
  endpoint.result: "> 100 µM"
- molecule: "NC(=S)N/N=C\\CC(O)(C(F)(F)F)C(F)(F)F"
  test.target: "SN12C renal"
  endpoint.result: "> 10 µM"
- molecule: "CC(C)(C)c1ccc(-c2nnc(-c3cc(C#N)cc(-c4nnc(-c5ccc(C(C)(C)C)cc5)o4)c3)o2)cc1"
  test.target: "SN12C renal"
  endpoint.result: "> 100 µM"
- molecule: "COC(=O)n1c(C[P+](c2ccccc2)(c2ccccc2)c2ccccc2)cc2ccccc21"
  test.target: "SN12C renal"
  endpoint.result: "11.7 µM"
- molecule: "C=CCOC(=O)CCCCCCCCCCCCCCCOC(=O)C1=C(CCC[C@@H](C)O[Si](C)(C)C(C)(C)C)NC(=O)N2[C@H](CC3(CC/C=C\\[C@H](CC)O[Si](C(C)C)(C(C)C)C(C)C)OCCO3)CC[C@H]12"
  test.target: "SN12C renal"
  endpoint.result: "> 100 µM"
